# assay_text: Pharmacokinetics in SD rats after intravenous injection or gavage
# condition_context: rat, plasma, iv, 1 mg/kg
attribute_measured: AUC(0-t) (ng·h/mL)

Known results for compounds:
I'd like to know its AUC(0-t). The compound in question is CC#Cc1cc(CN2CCN(c3ccc(C(=O)NC)nc3F)CC2)cc2[nH]c(=O)c(C)nc12
3370

Try the compound CNC(=O)c1ccc(C2=CCN(Cc3cc(OC(F)F)c4nc(C)c(=O)[nH]c4c3)CC2)c(F)n1
6060

P: CC#Cc1cc(CN2CC=C(c3ccc(C(=O)NC4CC4)nc3F)CC2)c(F)c2[nH]c(=O)c(C)nc12
Q: CNC(=O)c1ccc(N2CCN(Cc3cc(OC(F)F)c4nc(C)c(=O)[nH]c4c3)CC2)c(C)n1
I'm curious, which of these has a smaller AUC(0-t) number: P or Q ? Give the chosen item's label as your response.
P
(P: 1670 ng·h/mL, Q: 3520 ng·h/mL)

====

# assay_text: Pharmacokinetics in mice after intravenous injection or gavage
# condition_context: BALB/c, mouse, plasma, iv, 2 mg/kg
attribute_measured: Cmax (ng/mL)

Dear colleague, I am looking for the recorded Cmax of the following molecule: CNC(=O)c1ccc(C2=CCN(Cc3cc(OC(F)F)c4nc(C)c(=O)[nH]c4c3)CC2)c(F)n1 [Example 15]
13600

A: CNC(=O)c1ccc(N2CCN(Cc3cc(OC(F)F)c4nc(C)c(=O)[nH]c4c3F)CC2)c(F)n1 [Example 14]
B: CNC(=O)c1ccc(N2CCN(Cc3cc(OC(F)F)c4nc(C)c(=O)[nH]c4c3)CC2)c(C)n1 [Example 52]
C: CNC(=O)c1ccc(N2CCN(Cc3cc(OC(C)C)c4nc(C)c(=O)[nH]c4c3)CC2)c(F)n1 [Example 3]
Provide the items ranked by increasing Cmax. Dear reader, please state the labels in the requested order.
C, A, B
(C: 1220 ng/mL, A: 2080 ng/mL, B: 7220 ng/mL)

====

# assay_text: in vivo
# condition_context: BALB/c, mouse, iv, 2 mg/kg
attribute_measured: AUC(0-t) (ng·h/mL)
Express your answer in ng·h/mL, writing the number without its unit.

// query AUC(0-t) value for entry CC#Cc1cc(CN2CC=C(c3ccc(C(=O)NC)nc3F)CC2)cc2[nH]c(=O)c(C)nc12
1430

====

# measured_on: PARP1 (Homo sapiens)
# assay_text: Inhibition of PARP1 enzyme activity (ELISA, chemiluminescence)
# Type: biochemical
# condition_context: ratio of PARP2 IC50 to PARP1 IC50
attribute_measured: Selectivity PARP2/PARP1

# input compound: Cc1nc2c(OC(F)F)cc(CN3CCN(c4ccc(C(=O)NC5CC5)nc4F)CC3)cc2[nH]c1=O ; wanted: its Selectivity PARP2/PARP1
25.0

Proceed to CNC(=O)c1ccc(N2CCN(Cc3cc(-c4ccccc4)c4nc(C)c(=O)[nH]c4c3)CC2)c(F)n1
2084.7

Now consider CNC(=O)c1ccc(N2CCN(Cc3cc(OC(C)C(F)(F)F)c4nc(C)c(=O)[nH]c4c3)CC2)c(F)n1 (stereo not drawn) .
359.1

P: CNC(=O)c1ccc(N2CCN(Cc3cc(C4CC4)c4nc(C)c(=O)[nH]c4c3F)CC2)c(F)n1
Q: CNC(=O)c1ccc(N2CCN(Cc3cc(OC(F)(F)F)c4nc(C)c(=O)[nH]c4c3)CC2)c(F)n1
R: CNC(=O)c1ccc(N2CCN(Cc3cc(Oc4ccccc4)c4nc(C)c(=O)[nH]c4c3)CC2)c(F)n1
S: CC#Cc1cc(CN2CCN3c4ccc(C(=O)NC)nc4COC[C@H]3C2)cc2[nH]c(=O)c(C)nc12
T: CNC(=O)c1ccc(N2CCN(Cc3cc(OC(F)F)c4nc(C)c(=O)[nH]c4c3F)CC2)c(C)n1
# ascending order, key=Selectivity PARP2/PARP1 Dear reader, please state the labels in the requested order.
Q, P, S, R, T
(Q: 46.9, P: 107.3, S: 398.8, R: 968.5, T: 2030.7)

====

# measured_on: PARP1 (Homo sapiens, UniProt P09874)
# Sequence (P09874 whole entry): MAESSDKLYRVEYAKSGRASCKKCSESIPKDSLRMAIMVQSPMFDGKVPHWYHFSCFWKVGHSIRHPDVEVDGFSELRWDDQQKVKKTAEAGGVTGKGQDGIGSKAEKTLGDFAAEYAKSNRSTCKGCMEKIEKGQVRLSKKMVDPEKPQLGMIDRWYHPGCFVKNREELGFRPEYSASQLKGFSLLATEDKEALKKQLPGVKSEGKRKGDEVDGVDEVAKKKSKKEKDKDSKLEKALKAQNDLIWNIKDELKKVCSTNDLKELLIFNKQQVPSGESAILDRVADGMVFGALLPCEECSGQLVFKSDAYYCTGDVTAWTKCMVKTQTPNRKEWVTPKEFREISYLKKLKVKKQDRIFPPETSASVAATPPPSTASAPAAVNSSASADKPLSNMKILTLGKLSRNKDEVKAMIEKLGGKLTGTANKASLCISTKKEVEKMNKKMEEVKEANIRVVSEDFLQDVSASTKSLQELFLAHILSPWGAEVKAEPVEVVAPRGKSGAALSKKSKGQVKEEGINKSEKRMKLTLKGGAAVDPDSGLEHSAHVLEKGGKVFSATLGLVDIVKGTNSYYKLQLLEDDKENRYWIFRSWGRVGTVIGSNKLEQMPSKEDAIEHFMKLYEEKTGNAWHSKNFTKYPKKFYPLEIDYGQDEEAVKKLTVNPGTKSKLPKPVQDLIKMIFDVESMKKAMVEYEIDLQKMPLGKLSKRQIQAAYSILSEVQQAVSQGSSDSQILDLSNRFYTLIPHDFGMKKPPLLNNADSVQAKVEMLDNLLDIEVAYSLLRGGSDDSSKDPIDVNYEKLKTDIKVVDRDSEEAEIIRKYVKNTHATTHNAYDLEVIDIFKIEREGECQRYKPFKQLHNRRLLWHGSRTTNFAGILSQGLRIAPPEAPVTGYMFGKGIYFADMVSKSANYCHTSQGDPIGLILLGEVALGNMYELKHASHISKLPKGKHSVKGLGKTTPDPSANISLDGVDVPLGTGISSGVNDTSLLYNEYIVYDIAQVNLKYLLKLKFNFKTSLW
# assay_text: Inhibition of PARP1 enzyme activity (ELISA, chemiluminescence)
# Assay type: biochemical
# condition_context: ELISA, histone-coated plate, NAD+, 60 min at 25 °C
attribute_measured: IC50 (nM)

Known results for compounds:
Look up IC50 for this compound: C#Cc1cc(CN2CCN(c3ccc(C(=O)NC)nc3F)CC2)cc2[nH]c(=O)c(C)nc12
0.6

Could you do the same for CNC(=O)c1ccc(N2CCN(Cc3cc(OC4CC(F)(F)C4)c4nc(C)c(=O)[nH]c4c3)CC2)c(F)n1 , please?
1.7

1: CNC(=O)c1ccc(N2CCN(Cc3cc(OC(F)F)c4nc(C)c(=O)[nH]c4c3)CC2)c(F)n1
2: CC#Cc1cc(CN2CCN(c3ccc(C(=O)NC)nc3)CC2)c(F)c2[nH]c(=O)c(C)nc12
Could you please tell me which of these two has the higher IC50: 1 or 2 ? # answer = label of selected item
2
(2: 5.7 nM, 1: 0.713 nM)

P: CNC(=O)c1ccc2c(n1)COC[C@H]1CN(Cc3cc(OC(F)F)c4nc(C)c(=O)[nH]c4c3)CCN21
Q: CNC(=O)c1ccc(N2CCN(Cc3cc(OC(F)F)c4nc(C)c(=O)[nH]c4c3F)CC2)c(F)n1
R: CC#Cc1cc(CN2CCN(c3ccc(C(=O)NC)nc3F)CC2)cc2[nH]c(=O)c(C)nc12
Descending sort on IC50 required. Note for the reader: the ranking is given by listing the labels in the order requested.
Q, P, R
(Q: 27.7 nM, P: 1.9 nM, R: 1.3 nM)

1: CNC(=O)c1ccc(N2CCN(Cc3cc(OC(F)(F)F)c4nc(C)c(=O)[nH]c4c3)CC2)c(C)n1
2: CC#Cc1cc(CN2CC=C(c3ccc(C(=O)NC4CC4)nc3)CC2)c(F)c2[nH]c(=O)c(C)nc12
Which record would sort first by descending IC50, 1 or 2 ? Your answer should be the label attached to the chosen record.
2

P: Cc1nc2c(OC(F)F)cc(CN3CCN(c4ccc(C(=O)N[C@H]5C[C@H]5F)nc4F)CC3)cc2[nH]c1=O
Q: CC#Cc1cc(CN2CCN(c3ccc(OC(F)F)nc3)CC2)cc2[nH]c(=O)c(C)nc12
R: CNC(=O)c1ccc(N2CCN(Cc3cc(-c4ccc(OC)cc4)c4nc(C)c(=O)[nH]c4c3)CC2)c(F)n1
S: CC#Cc1cc(CN2CCN(c3ccc(C(=O)NC4CC4)nc3F)CC2)c(F)c2[nH]c(=O)c(C)nc12
Order these by IC50, descending, and give the full ranking. Would you mind listing the labels in the order requested?
Q, S, R, P
(Q: 12.9 nM, S: 6.9 nM, R: 3.2 nM, P: 1.7 nM)

====

# measured_on: UniProtKB P09874
# assay_text: Inhibition of PARP1 enzyme activity (ELISA, chemiluminescence)
# Assay type: biochemical
# condition_context: ratio of PARP2 IC50 to PARP1 IC50
attribute_measured: Selectivity PARP2/PARP1

Worked set:
Look up Selectivity PARP2/PARP1: C#Cc1cc(CN2CCN(c3ccc(C(=O)NC)nc3F)CC2)cc2[nH]c(=O)c(C)nc12
124.8

// query: CNC(=O)c1ccc(C2=CCN(Cc3cc(OC(F)F)c4nc(C)c(=O)[nH]c4c3)CC2)c(C)n1
2192.4

a: CNC(=O)c1ccc(N2CCN(Cc3cc(OC(F)F)c4nc(C)c(=O)[nH]c4c3)CC2)c(F)n1
b: CNC(=O)c1ccc(N2CCN(Cc3cc(OC4CC(F)(F)C4)c4nc(C)c(=O)[nH]c4c3)CC2)c(F)n1
c: CC#Cc1cc(CN2CCN(c3ccc(C#N)nc3)CC2)cc2[nH]c(=O)c(C)nc12
Arrange by Selectivity PARP2/PARP1, high to low. Please respond with the labels ordered as the question requires.
a, c, b

====

# assay_text: Pharmacokinetics in mice after intravenous injection or gavage
# condition_context: BALB/c, mouse, plasma, po, 5 mg/kg
attribute_measured: half-life (h)

Would you please look over these solved cases?
Fill blank: measured half-life of the compound CNC(=O)c1ccc(N2CCN(Cc3cc(OC(F)F)c4nc(C)c(=O)[nH]c4c3F)CC2)c(F)n1 is ____.
3.3

CNC(=O)c1ccc(N2CCN(Cc3cc(OC(F)F)c4nc(C)c(=O)[nH]c4c3)CC2)c(C)n1 ?
2.8

a: CNC(=O)c1ccc(N2CCN(Cc3cc(OC(C)C)c4nc(C)c(=O)[nH]c4c3)CC2)c(F)n1
b: CNC(=O)c1ccc(N2CCN(Cc3cc(-c4ccccc4)c4nc(C)c(=O)[nH]c4c3)CC2)c(F)n1
Pick one: a or b . Which one has the lower reported half-life? Bench note: the answer is the label of the chosen record.
a
